IC95: recorded values
# Tested on: HIV
# protocol.notes: Assay for inhibition of HIV replication (acute HIV infection of T-lymphoid cells)
# Type: cell-based
# condition.context: Human immunodeficiency virus 1, per Vacca et al. 1994

Check out these entries, answers already filled in.
INSERT INTO measurements (smiles_notation, endpoint_name, measured) VALUES
  ('O=C(NC1CC1)c1cn2c(c1O)C(=O)N(Cc1ccc(F)cc1)CC2', 'IC95', '≤ 20 µM'),
  ('CCOC(=O)c1cn2c(c1O)C(=O)N(Cc1ccc(F)cc1)CC2', 'IC95', '≤ 20 µM'),
  ('CN1CCn2cc(C(=O)NCc3ccc(F)cc3)c(O)c2C1=O', 'IC95', '≤ 20 µM'),
  ('CNC(=O)c1cn2c(c1O)C(=O)N(Cc1ccc(F)c(F)c1)CC2', 'IC95', '≤ 20 µM'),
  ('CCOC(=O)c1cn2c(c1O)C(=O)N(Cc1cccc(Cl)c1)CC2', 'IC95', '≤ 20 µM'),
  ('CCNC(=O)c1cn2c(c1O)C(=O)N(Cc1ccc(F)cc1)CC2', 'IC95', '≤ 20 µM'),
  ('CCOC(=O)c1cn2c(c1O)C(=O)N(Cc1ccccc1)CC2', 'IC95', '≤ 20 µM'),
  ('CNC(=O)c1cn2c(c1O)C(=O)N(Cc1ccc(F)cc1)CC2', 'IC95', '≤ 20 µM');

Query compound follows.
Prompt: I would be grateful if you could share the reported IC95 for CNC(=O)c1cn2c(c1O)C(=O)N(Cc1ccc(Cl)cc1)CC2 .
Completion: ≤ 20 µM
